All figures here come from ChEMBL document CHEMBL3407339.

# Test system: Salmonella typhimurium
# Assay overview: Mutagenicity in Salmonella typhimurium TA100 at 1.25 mg/ml after 48 hrs by AMES MPF assay in presence of Sprague-Dawley rat liver microsomal S9 fraction relative to baseline
# Assay type: toxicity, organism-based
# Condition info: salmonella enterica subsp. enterica serovar typhimurium
I'd appreciate it if you could supply fold change (FC) values for the items below.
Write no unit; give the number alone.

Ask: Retrieve fold change (FC) on Salmonella typhimurium; query Fc1ccc(C2CC(c3ccc(Cl)s3)=NN2c2nc(-c3ccccc3)cs2)cc1 (stereo unspecified)
Result: 4.62

Ask: Provide Salmonella typhimurium fold change (FC) reading for Cc1ccc(C2=NN(c3nc(-c4ccc(C#N)cc4)cs3)C(c3ccc(F)cc3)C2)s1 (stereo unspecified) .
Result: 0.7

Ask: Give fold change (FC) for Fc1ccc(C2CC(c3ccc(Cl)s3)=NN2c2nc(-c3ccc(Br)cc3)cs2)cc1 (stereo unspecified) tested on Salmonella typhimurium.
Result: 5.08

Ask: Print Salmonella typhimurium fold change (FC) for Fc1ccc(C2CC(c3ccc(Cl)s3)=NN2c2nc(-c3ccc(Cl)cc3)cs2)cc1 (stereo unspecified) .
Result: 3.69

Ask: Recall the reported fold change (FC) of Fc1ccc(C2CC(c3ccc(Cl)s3)=NN2c2nc(-c3ccc(C(F)(F)F)cc3)cs2)cc1 (stereo unspecified) on Salmonella typhimurium and write it down.
Result: 2.77

Ask: Report its fold change (FC) with Salmonella typhimurium as the test system: Cc1ccc(C2=NN(c3nc(-c4ccc(S(C)(=O)=O)cc4)cs3)C(c3ccc(F)cc3)C2)s1 (stereo unspecified)
Result: 0.8

###

# Tested on: Salmonella typhimurium
# Assay overview: Mutagenicity in Salmonella typhimurium TA98 at 1.25 mg/ml after 48 hrs by AMES MPF assay in absence of Sprague-Dawley rat liver microsomal S9 fraction relative to baseline
# Assay type: toxicity, organism-based
# Condition info: salmonella enterica subsp. enterica serovar typhimurium
Metric: fold change (FC)
Give the figure by itself; no unit, no explanation.

Ask: Tell us which fold change (FC) value is on record for Fc1ccc(C2CC(c3ccc(Cl)s3)=NN2c2nc(-c3ccccc3)cs2)cc1 (stereo unspecified)
Result: 0

Ask: Tell us which fold change (FC) value is on record for Cc1ccc(C2=NN(c3nc(-c4ccc(S(C)(=O)=O)cc4)cs3)C(c3ccc(F)cc3)C2)s1 (stereo unspecified)
Result: 0.89

Ask: Let me know recorded fold change (FC) for Cc1ccc(C2=NN(c3nc(-c4ccc(C#N)cc4)cs3)C(c3ccc(F)cc3)C2)s1 (stereo unspecified) , thanks.
Result: 1.11

Ask: Look up and state reported fold change (FC) for Fc1ccc(C2CC(c3ccc(Cl)s3)=NN2c2nc(-c3ccc(C(F)(F)F)cc3)cs2)cc1 (stereo unspecified)
Result: 0.67

Ask: Supply fold change (FC) value. Item: Fc1ccc(C2CC(c3ccc(Cl)s3)=NN2c2nc(-c3ccc(Br)cc3)cs2)cc1 (stereo unspecified)
Result: 0

Ask: Answer with reported fold change (FC) of Fc1ccc(C2CC(c3ccc(Cl)s3)=NN2c2nc(-c3ccc(Cl)cc3)cs2)cc1 (stereo unspecified)
Result: 0.67

###

# Tested on: Candida albicans
# Assay overview: Antifungal activity against Candida albicans ATCC 90028 after 48 hrs by broth microdilution assay
# Type: functional
# Condition info: ATCC 90028, 48 h
Metric: MIC (µg/mL)
// note: answer is a bare numeric in µg/mL

Ask: Read the entry Cc1ccc(-c2csc(N3N=C(c4ccc(Cl)s4)CC3c3ccc(F)cc3)n2)cc1 (centres undefined) and write its reported MIC.
Result: 250

Ask: Return the recorded MIC value; entry: Fc1ccc(C2CC(c3ccc(Cl)s3)=NN2c2nc(-c3ccc(C(F)(F)F)cc3)cs2)cc1 (centres undefined)
Result: 500

Ask: Identify measured MIC corresponding to Cc1ccc(C2=NN(c3nc(-c4ccc(S(C)(=O)=O)cc4)cs3)C(c3ccc(F)cc3)C2)s1 (centres undefined)
Result: 250

Ask: Identify measured MIC corresponding to Fc1ccc(C2CC(c3ccc(Cl)s3)=NN2c2nc(-c3ccc4c(c3)OCO4)cs2)cc1 (centres undefined)
Result: 250

Ask: In one line, give reported MIC of the entry Cc1ccc(C2=NN(c3nc(-c4ccc(C#N)cc4)cs3)C(c3ccc(F)cc3)C2)s1 (centres undefined) .
Result: 250

Ask: Check the records and state MIC for Fc1ccc(C2CC(c3ccc(Cl)s3)=NN2c2nc(-c3ccccc3)cs2)cc1 (centres undefined)
Result: 250

Ask: Identify MIC associated with the molecule O=[N+]([O-])c1ccc(-c2csc(N3N=C(c4ccc(Cl)s4)CC3c3ccc(F)cc3)n2)cc1 (centres undefined)
Result: 250

Ask: Please indicate MIC recorded for COc1ccc(-c2csc(N3N=C(c4ccc(Cl)s4)CC3c3ccc(F)cc3)n2)cc1 (centres undefined)
Result: 250

Ask: Return MIC for the following molecule: COc1ccc(-c2csc(N3N=C(c4ccc(C)s4)CC3c3ccc(F)cc3)n2)cc1 (centres undefined)
Result: 500

###

Kindly supply the reported fold change (FC) values for the records listed here.
# System: Salmonella typhimurium
# Assay overview: Mutagenicity in Salmonella typhimurium TA100 at 2.5 mg/ml after 48 hrs by AMES MPF assay in absence of Sprague-Dawley rat liver microsomal S9 fraction relative to baseline
# Type: toxicity, organism-based
# Condition info: salmonella enterica subsp. enterica serovar typhimurium
Simply state the number, no unit and no words.

Ask: Determine from records and report fold change (FC) for Fc1ccc(C2CC(c3ccc(Cl)s3)=NN2c2nc(-c3ccccc3)cs2)cc1 (stereo unspecified)
Result: 2.88

Ask: Give fold change (FC) for Cc1ccc(C2=NN(c3nc(-c4ccc(S(C)(=O)=O)cc4)cs3)C(c3ccc(F)cc3)C2)s1 (stereo unspecified)
Result: 0.52

Ask: Quote fold change (FC) reported for Fc1ccc(C2CC(c3ccc(Cl)s3)=NN2c2nc(-c3ccc(Cl)cc3)cs2)cc1 (stereo unspecified) please.
Result: 1

Ask: Supply measured fold change (FC) of Fc1ccc(C2CC(c3ccc(Cl)s3)=NN2c2nc(-c3ccc(Br)cc3)cs2)cc1 (stereo unspecified) in your reply.
Result: 0.33

Ask: Return reported fold change (FC). Input molecule: Cc1ccc(C2=NN(c3nc(-c4ccc(C#N)cc4)cs3)C(c3ccc(F)cc3)C2)s1 (stereo unspecified)
Result: 0.31

Ask: Annotate the molecule Fc1ccc(C2CC(c3ccc(Cl)s3)=NN2c2nc(-c3ccc(C(F)(F)F)cc3)cs2)cc1 (stereo unspecified) with its measured fold change (FC).
Result: 1.33

###

# System: Salmonella typhimurium
# Assay overview: Mutagenicity in Salmonella typhimurium TA98 at 0.625 mg/ml after 48 hrs by AMES MPF assay in presence of Sprague-Dawley rat liver microsomal S9 fraction relative to baseline
# Assay type: toxicity, organism-based
# Condition info: salmonella enterica subsp. enterica serovar typhimurium
Record form. Attribute: fold change (FC). Fill in for each entry.
Reply with the value as a number alone.

Ask: Look up and state reported fold change (FC) for Fc1ccc(C2CC(c3ccc(Cl)s3)=NN2c2nc(-c3ccc(C(F)(F)F)cc3)cs2)cc1 (stereo unspecified)
Result: 1.09

Ask: Give recorded fold change (FC). Fc1ccc(C2CC(c3ccc(Cl)s3)=NN2c2nc(-c3ccccc3)cs2)cc1 (stereo unspecified)
Result: 1.08

Ask: Give the reported value of fold change (FC) for this record: Fc1ccc(C2CC(c3ccc(Cl)s3)=NN2c2nc(-c3ccc(Cl)cc3)cs2)cc1 (stereo unspecified)
Result: 0.95

Ask: Please report fold change (FC) for the following compound: Cc1ccc(C2=NN(c3nc(-c4ccc(S(C)(=O)=O)cc4)cs3)C(c3ccc(F)cc3)C2)s1 (stereo unspecified)
Result: 1.63

Ask: Please report the measured fold change (FC) for Cc1ccc(C2=NN(c3nc(-c4ccc(C#N)cc4)cs3)C(c3ccc(F)cc3)C2)s1 (stereo unspecified)
Result: 1.07

Ask: Please list fold change (FC) recorded for the compound Fc1ccc(C2CC(c3ccc(Cl)s3)=NN2c2nc(-c3ccc(Br)cc3)cs2)cc1 (stereo unspecified)
Result: 0.95

###

# Tested on: Salmonella typhimurium
# Assay overview: Mutagenicity in Salmonella typhimurium TA98 at 1.25 mg/ml after 48 hrs by AMES MPF assay in presence of Sprague-Dawley rat liver microsomal S9 fraction relative to baseline
# Assay type: toxicity, organism-based
# Condition info: salmonella enterica subsp. enterica serovar typhimurium
Metric: fold change (FC)

Ask: Return fold change (FC) (reported value) for this compound: Cc1ccc(C2=NN(c3nc(-c4ccc(C#N)cc4)cs3)C(c3ccc(F)cc3)C2)s1 (stereo unspecified)
Result: 0.44

Ask: Could you please provide reported fold change (FC) for Fc1ccc(C2CC(c3ccc(Cl)s3)=NN2c2nc(-c3ccc(C(F)(F)F)cc3)cs2)cc1 (stereo unspecified) ? Thanks!
Result: 0.22

Ask: Find the measured fold change (FC) of Fc1ccc(C2CC(c3ccc(Cl)s3)=NN2c2nc(-c3ccccc3)cs2)cc1 (stereo unspecified) and report it.
Result: 0.68

Ask: Return fold change (FC) for the following compound: Fc1ccc(C2CC(c3ccc(Cl)s3)=NN2c2nc(-c3ccc(Cl)cc3)cs2)cc1 (stereo unspecified)
Result: 0.81

Ask: Note down fold change (FC) recorded for Fc1ccc(C2CC(c3ccc(Cl)s3)=NN2c2nc(-c3ccc(Br)cc3)cs2)cc1 (stereo unspecified)
Result: 0.81

Ask: Give the reported value of fold change (FC) for this record: Cc1ccc(C2=NN(c3nc(-c4ccc(S(C)(=O)=O)cc4)cs3)C(c3ccc(F)cc3)C2)s1 (stereo unspecified)
Result: 0.95
